tested on: Lewis lung cancer; details: Lewis lung cancer; Dosage 50, ip × 10qd; first time
Each record here notes measured Weight of the tumor X ± SD, First time.
Just the number please, in g, no unit attached.

O=C(O)c1cc2c3ccccc3n(Cc3ccccc3)c2cn1 | 1.53
OCc1cc2c3ccccc3n(Cc3ccccc3)c2cn1 [Compound 42, 9-benzyl-3-hydroxymethyl-β-carboline] | 2.14
CCOC(=O)c1cc2c3ccccc3n(Cc3ccccc3)c2cn1 [Compound 33, ethyl 9-benzyl-β-carboline-3-carboxylate] | 1.60
CCOC(=O)c1cc2c(cn1)[nH]c1ccccc12 [Compound 10, ethyl β-carboline-3-carboxylate] | 1.63
CCOC(=O)c1cc2c3ccccc3n(CC)c2cn1 [Compound 31, ethyl 9-ethyl-β-carboline-3-carboxylate] | 1.70
COC(=O)c1cc2c([nH]c3ccccc32)c(-c2ccc(OC)cc2)n1 | 1.81

Exercise: Form field: reported Weight of the tumor X ± SD, First time of O=C(O)c1cc2c3ccccc3n(CCCc3ccccc3)c2cn1
Key: 1.82

Exercise: Form field: reported Weight of the tumor X ± SD, First time of COC(=O)c1cc2c([nH]c3ccccc32)c(-c2ccccc2)n1
Key: 1.76

Exercise: Form field: reported Weight of the tumor X ± SD, First time of CCCCn1c2ccccc2c2cc(C(=O)O)ncc21
Key: 2.00

----------
Each record here notes measured pIC50.
test system: BGC-823; test: In vitro cytotoxicity, IC50 by MTT method, BGC-823; format: cell-based; conditions: Homo sapiens, BGC-823; BGC823 cell strain; read-out: IC50 BGC823
# pIC50 is unitless: minus log10 of the molar concentration; print number only

Record excerpt, results attached:
CCOC(=O)c1cc2c3ccccc3n(CC)c2cn1 [Compound 31, ethyl 9-ethyl-β-carboline-3-carboxylate] | 3.85
CCCc1nc(C(=O)O)cc2c3ccccc3n(CCCc3ccccc3)c12 | 3.62
Cc1nc(C(=O)O)cc2c3ccccc3n(C)c12 | 3.19
CCn1c2ccccc2c2cc(C(=O)O)ncc21 | 3.80
CCCc1nc(C(=O)OCC)cc2c3ccccc3n(CC)c12 | 3.64

Exercise: Form field: reported pIC50 of CCOC(=O)c1cc2c3ccccc3n(C)c2cn1 [Compound 30, ethyl 9-methyl-β-carboline-3-carboxylate]
Key: 3.82

Exercise: Form field: reported pIC50 of CCCCn1c2ccccc2c2cc(C(=O)OC)ncc21
Key: 3.51

----------
Each record here notes measured Body weight of the animals, end, Second time.
tested on: S180 sarcoma; details: S180 sarcoma; Dosage 50 (mg/ml), ip × 10qd; second time
Just the number please, in g, no unit attached.

Record excerpt, results attached:
OCc1cc2c3ccccc3n(Cc3ccccc3)c2cn1 [Compound 42, 9-benzyl-3-hydroxymethyl-β-carboline] | 25.6
CCCCn1c2ccccc2c2cc(C(=O)O)ncc21 [Compound 36, 9-butyl-β-carboline-3-carboxylic acid] | 25.3
O=C(O)c1cc2c3ccccc3n(CCCc3ccccc3)c2cn1 [Compound 48] | 25.8
CCOC(=O)c1cc2c3ccccc3n(Cc3ccccc3)c2cn1 [Compound 33, ethyl 9-benzyl-β-carboline-3-carboxylate] | 25.6
O=C(O)c1cc2c3ccccc3n(Cc3ccccc3)c2cn1 [Compound 37, 9-benzyl-β-carboline-3-carboxylic acid] | 24.7

Exercise: Form field: reported Body weight of the animals, end, Second time of CCOC(=O)Nc1cc2c3ccccc3n(Cc3ccccc3)c2cn1 [Compound 55]
Key: 24.8

Exercise: Form field: reported Body weight of the animals, end, Second time of c1ccc(Cn2c3ccccc3c3ccncc32)cc1 [Compound 84, 9-Benzyl-β-carboline]
Key: 25.4

Exercise: Form field: reported Body weight of the animals, end, Second time of CCOC(=O)c1cc2c([nH]c3ccccc32)c(C)n1 [Compound 11, ethyl 1-methyl-β-carboline-3-carboxylate]
Key: 23.9

Exercise: Form field: reported Body weight of the animals, end, Second time of O=C(O)c1cc2c(cn1)[nH]c1ccccc12 [Compound 17, β-carboline-3-carboxylic acid]
Key: 25.9

----------
Each record here notes measured pIC50.
system: Lovo; assay: In vitro cytotoxicity, IC50 by MTT method, Lovo; type: cell-based; conditions: Homo sapiens, LoVo
# pIC50 is unitless: minus log10 of the molar concentration; print number only

Record excerpt, results attached:
COc1ccc2c(c1)[nH]c1c(C)nccc12 [Compound 1, reference compound] | 4.15
CCOC(=O)c1cc2c(cn1)[nH]c1ccccc12 [Compound 10, ethyl β-carboline-3-carboxylate] | 3.00
CCn1c2cc(OC)ccc2c2ccnc(C)c21 | 3.77

Could you now look at the following compound, please?
Exercise: Form field: reported pIC50 of COC(=O)c1cc2c(cn1)[nH]c1ccccc12 [Compound 9, methyl β-carboline-3-carboxylate]
Key: 3.77

----------
Each record here notes measured IC50.
Test system: PLA-801
Assay: In vitro cytotoxicity, IC50 by MTT method, PLA-801
Assay type: cell-based
Conditions: PLA-801 cell strain; read-out: IC50 PLA-801
Protocol: Culture medium powder RPMI1640 was dissolved in a proper amount of tri-distilled water according to the instruction of the product. […] It was the basic culture solution. […] The cells, at a concentration of 10^5/ml, were inoculated at a 96-pore culture plate. […] After that, OD value was identified with a Microplate Reader at the wavelength of 490 nm. The survival rate of the cells at various concentrations was calculated according to the following formula: […]
Just the number please, in µM, no unit attached.

Cc1nc(C(=O)O)cc2c3ccccc3n(Cc3ccccc3)c12 [Compound 64] | 410

Exercise: Record CCOC(=O)Nc1cc2c3ccccc3n(Cc3ccccc3)c2cn1 [Compound 55] : what is its IC50 with PLA-801?
Key: 520

Exercise: Record CC(=O)COc1cc2c3ccccc3n(Cc3ccccc3)c2cn1 [Compound 43, 9-benzyl-3-acetylmethoxy-β-carboline] : what is its IC50 with PLA-801?
Key: 250

Exercise: Record Cn1c2ccccc2c2cc(C(=O)O)ncc21 [Compound 34, 9-methyl-β-carboline-3-carboxylic acid] : what is its IC50 with PLA-801?
Key: 270

----------
test system: HepG2; assay: In vitro cytotoxicity, IC50 by MTT method, HepG2; type: cell-based, human; details: Homo sapiens; HepG2 cell strain; read-out: IC50 HepG2
pIC50: −log10 of the molar value.
Please mark 1 (yes) if the recorded pIC50 is equal to or greater than 4, and 0 (no) if it falls below.

Exercise: Is reported pIC50 greater than or equal to 4 here: O=C(O)c1cc2c3ccccc3n(CCCc3ccccc3)c2cn1
Key: 1 (yes)

----------
Each record here notes measured Body weight of the animals, end, First time.
test system: Lewis lung cancer; conditions: Lewis lung cancer; Dosage 50 (mg/ml), ip × 10qd; first time
Just the number please, in g, no unit attached.

Exercise: Form field: reported Body weight of the animals, end, First time of O=C(O)c1cc2c3ccccc3n(Cc3ccccc3)c2cn1
Key: 23.9

Exercise: Form field: reported Body weight of the animals, end, First time of CCCCn1c2ccccc2c2cc(C(=O)O)ncc21
Key: 25.6

Exercise: Form field: reported Body weight of the animals, end, First time of CCOC(=O)c1cc2c3ccccc3n(Cc3ccccc3)c2cn1 [Compound 33, ethyl 9-benzyl-β-carboline-3-carboxylate]
Key: 25.4

----------
test system: Kunming mice; settings: female mice, 240 mg/kg, single i.p.
readout: Death rate
Answer with a bare number; do not write a unit.

COC(=O)c1cc2c([nH]c3ccccc32)c(-c2ccc(O)cc2)n1 | 0

Exercise: Form field: reported Death rate of CCOC(=O)c1cc2c([nH]c3ccccc32)c(C)n1 [Compound 11, ethyl 1-methyl-β-carboline-3-carboxylate]
Key: 100

Exercise: Form field: reported Death rate of c1ccc(Cn2c3ccccc3c3ccncc32)cc1
Key: 0

Exercise: Form field: reported Death rate of CCOC(=O)Nc1cc2c3ccccc3n(Cc3ccccc3)c2cn1
Key: 0

Exercise: Form field: reported Death rate of O=C(O)c1cc2c3ccccc3n(CCCc3ccccc3)c2cn1
Key: 60

----------
system: Lewis lung cancer; settings: Lewis lung cancer; Dosage 100 (mg/ml), ip × 10qd; second time;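 further: mice implanted subcutaneously in the axilla with Lewis lung tumor cells, treated starting the following day, killed roughly three weeks after implantation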
Each record here notes measured Body weight of the animals, end, Second time.
Just the number please, in g, no unit attached.

Record excerpt, results attached:
OCc1cc2c3ccccc3n(Cc3ccccc3)c2cn1 [Compound 42, 9-benzyl-3-hydroxymethyl-β-carboline] | 25.1
O=C(O)c1cc2c(cn1)[nH]c1ccccc12 | 24.9

Could you now look at the following compound, please?
Exercise: Form field: reported Body weight of the animals, end, Second time of O=C(O)c1cc2c3ccccc3n(CCCc3ccccc3)c2cn1
Key: 25.2

----------
Each record here notes measured Death rate.
system: Kunming mice; details: 50% male 50% female mice, 300 mg/kg, single i.p.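 Further: acute toxicity in Kunming mice grouped by sex, one intraperitoneal dose at five graded levels in Tween-80 plus 0.5% CMC-Na, deaths monitored over two weeks.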
Answer with a bare number; do not write a unit.

Record excerpt, results attached:
O=C(O)c1cc2c3ccccc3n(CCCc3ccccc3)c2cn1 [Compound 48] | 100
COC(=O)c1cc2c([nH]c3ccccc32)c(-c2ccc(O)cc2)n1 [Compound 16] | 30
O=C(O)c1cc2c3ccccc3n(Cc3ccccc3)c2cn1 [Compound 37, 9-benzyl-β-carboline-3-carboxylic acid] | 100
CCCCn1c2ccccc2c2cc(C(=O)O)ncc21 [Compound 36, 9-butyl-β-carboline-3-carboxylic acid] | 30

Could you now look at the following compound, please?
Exercise: Form field: reported Death rate of OCc1cc2c3ccccc3n(Cc3ccccc3)c2cn1 [Compound 42, 9-benzyl-3-hydroxymethyl-β-carboline]
Key: 80
